- System Name: B1 receptor (Oryctolagus cuniculus, UniProt P48748)
- Sequence (P48748 1-352): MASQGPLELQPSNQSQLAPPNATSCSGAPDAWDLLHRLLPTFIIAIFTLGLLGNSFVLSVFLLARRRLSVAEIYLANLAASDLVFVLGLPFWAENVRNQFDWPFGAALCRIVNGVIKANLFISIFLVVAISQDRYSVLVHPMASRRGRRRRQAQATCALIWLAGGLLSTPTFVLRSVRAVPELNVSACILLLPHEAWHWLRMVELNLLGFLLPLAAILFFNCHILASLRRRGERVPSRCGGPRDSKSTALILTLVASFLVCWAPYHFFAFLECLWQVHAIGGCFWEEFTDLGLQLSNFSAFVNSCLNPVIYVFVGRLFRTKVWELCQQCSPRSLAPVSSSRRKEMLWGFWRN
- Method: cell-based
- Run Parameters: Rb.A. pA2, apparent affinity as antagonist vs desArg9BK; antagonist applied 10 min before; Inactive = no detectable antagonistic effect at ≦ 10 μg/ml
Non-standard residues stand in square brackets, D forms with d. Residues, ends and D or L forms follow the SMILES beside them. 2Nal = N[C@@H](Cc1ccc2ccccc2c1)C(=O)O; d2Nal = N[C@H](Cc1ccc2ccccc2c1)C(=O)O; Hyp = O=C(O)[C@@H]1C[C@@H](O)CN1; dTic = O=C(O)[C@H]1Cc2ccccc2CN1
Endpoint Name: Kb (nM)
Numbers only, in nM.

INSERT INTO results (molecule, endpoint_name, value_reported) VALUES
  ('CNCC(=O)N[C@@H](Cc1ccc(O)cc1)C(=O)NCCCCCC(=O)N[C@@H](CCCCN)C(=O)N[C@@H](CCCNC(=N)N)C(=O)N1CCC[C@H]1C(=O)N1CCC[C@H]1C(=O)NCC(=O)N[C@@H](Cc1ccccc1)C(=O)N[C@@H](CO)C(=O)N1CCC[C@H]1C(=O)N[C@@H](CC(C)C)C(=O)O', 'Kb', 6.76);

I have 2 molecules here; please give me Kb for each one.
1. CC(C)C[C@H](NC(=O)[C@H]1Cc2ccccc2CN1C(=O)[C@H](CO)NC(=O)[C@H](Cc1ccccc1)NC(=O)CNC(=O)[C@@H]1CCCN1C(=O)[C@@H]1CCCN1C(=O)[C@@H](N)CCCNC(=N)N)C(=O)O [Compound 8, (D-Tic^7, Leu^8)desArg^9BK] (H-RPPGFS[dTic]L-OH; N-terminus and C-terminus assumed)
2. CC(C)C[C@H](NC(=O)[C@@H](Cc1ccccc1)NC(=O)[C@H](CO)NC(=O)[C@H](Cc1ccccc1)NC(=O)CNC(=O)[C@@H]1C[C@@H](O)CN1C(=O)[C@@H]1CCCN1C(=O)[C@H](CCCNC(=N)N)NC(=O)[C@H](N)CCCNC(=N)N)C(=O)O [Compound 7, D-Arg(Hyp^3, D-Phe^7, Leu^8)desArg^9BK] (H-[dR]RP[Hyp]GFS[dF]L-OH; N-terminus and C-terminus assumed)

1380
275

// each molecule listed below needs its Kb
1. CC[C@H](C)[C@H](NC(=O)[C@H](Cc1ccc2ccccc2c1)NC(=O)[C@H](CO)NC(=O)[C@H](Cc1ccccc1)NC(=O)CNC(=O)[C@@H]1CCCN1C(=O)[C@@H]1CCCN1C(=O)[C@H](CCCNC(=N)N)NC(=O)[C@H](CCCCN)NC(C)=O)C(=O)O [Compound 20, AcLys(L-βNal^7, Ile^8)desArg^9BK] (Ac-KRPPGFS[2Nal]I-OH; C-terminus assumed)
2. CC[C@H](C)[C@H](NC(=O)[C@@H](Cc1ccc2ccccc2c1)NC(=O)[C@H](CO)NC(=O)[C@H](Cc1ccccc1)NC(=O)CNC(=O)[C@@H]1CCCN1C(=O)[C@@H]1CCCN1C(=O)[C@H](CCCNC(=N)N)NC(=O)[C@H](N)CCCCN)C(=O)O [Compound 25, D-Lys(D-βNal^7, Ile^8)desArg^9BK] (H-[dK]RPPGFS[d2Nal]I-OH; N-terminus and C-terminus assumed)

5010
19.5
